The reported numbers originate from PubChem BioAssay (NCI).

Please respond with reported TGI for every item in the list.
tested on: U251 CNS; assay: NCI tumour cell line growth inhibition, 48 h

Lab book: TGI of `NCCCNCCSP(=O)(O)O` noted as > 750 µM

In plain terms, `CC(C)(C)OC(=O)NCCCCCCCCCCCCn1c2c(c3ccccc3c1=O)C(=O)c1ccccc1-2` has a documented TGI of > 100 µM

TGI reported for this compound `O=C1C(=O)N(c2cc(Cl)ccc2Cl)C(=O)C(=O)C1c1nc2ccccc2s1` : > 100 µM

response.value for COc1ccc(C2C3=C(COC3=O)Oc3cc4c(cc32)OCO4)cc1OC (stereo not given) (field: TGI) = > 100 µM

Kindly note the recorded TGI for `CC(C)(O)c1cc(Nc2cc(Oc3cn(C4CC4)nc3C3CCOCC3)ccn2)ccn1` , which is > 100 µM

----------
system: SK-MEL-2 melanoma; assay: NCI tumour cell line growth inhibition, 48 h
Task for the reader: assign each of the following compounds its reported TGI.
Note: unit µM is implicit; provide only the numeric part.

According to the records, this compound `CCOc1ccc2cc(-c3nn(CC4CCN(C)CC4)c4ncnc(N)c34)ccc2c1` displays TGI of 32.4

The measured TGI associated with `COc1ccc(CN2c3ccccc3Sc3ccccc32)cc1O` reads 19.9

Briefly, TGI measured for `Nc1ccc(C(=O)N/C(=C\c2ccc3c(c2)OCO3)c2nc3ccccc3s2)cc1` : 28

Recorded TGI (compound `C/C(=N\Nc1nc2cc(F)ccc2s1)c1ccccn1` ): 7.33

----------
test system: MDA-MB-231 breast; assay: NCI tumour cell line growth inhibition, 48 h
Consider the following compounds; for each one, report its TGI.

// field: TGI; key: `CCOC(=O)c1c(SC(=O)c2ccc(Cl)cc2)n(-c2ccccc2)c(=S)n(-c2ccccc2)c1=O` ; value = > 100 µM

response.value for CN1C2C=CC(=O)C1C(C#N)C2 (configuration not stated) (field: TGI) = > 100 µM

TGI reading for `C/C(CC(O)(C(F)(F)F)C(F)(F)F)=N\O` : > 10 µM

The compound identified as `COc1ccc(-c2c(/C=N/OCC(=O)O)c3sc4ccccc4n3c2/C=N/OCC(=O)O)cc1` registered its TGI at > 50 µM

Note to self: TGI recorded for `Nc1ccnc2c1ncn2[C@H]1C[C@H](O)[C@@H](CO)O1` was > 100 µM

# TGI (compound: `O=C(Oc1cncc(Cl)c1)c1cc2ccccc2sc1=O` ) is > 100 µM

Recorded result, CC(C)(C)c1cc(C(C)(C)C)c(SC2OC(CO)C(O)C(O)C2O)c(O)c1O (configuration not stated) , TGI: 50.9 µM

Entry `Cc1oc(N)c(S(=O)(=O)/C(C#N)=C/c2ccccc2[N+](=O)[O-])c1C` , TGI reported as 82.6 µM

The reported value for `Cc1c(C(=O)O)sc2nc[nH]c(=O)c12` in terms of TGI is > 100 µM

// O=C1CC(c2cccc([N+](=O)[O-])c2)C2(C(=O)NC(=S)NC2=O)C(c2cccc([N+](=O)[O-])c2)C1 (configuration not stated) : TGI value = 62.4 µM

Consider COc1ccc(-c2csc3c2[N+]2(C)C=CC=C2C3N2CCCC2)cc1 (configuration not stated) . Its measured TGI is > 100 µM

The compound listed as `CCCC(=O)Nc1cc(/C=C/C(=O)N2C[C@@H]3C[C@]34C2=CC(=O)c2[nH]cc(C)c24)n(C)c1` shows TGI equal to 1.68 µM

The compound `CN(CCOc1ccc(NS(C)(=O)=O)cc1)CCc1ccc(NS(C)(=O)=O)cc1` showed TGI equal to > 100 µM

Documented TGI of `O=C(NNC(=O)c1ccncc1)C(=O)Nc1cc(Cl)c(Cl)cc1Cl` : > 100 µM

The compound listed as `C/C(=N\NC(=S)N1CCCC1)c1ccccn1` shows TGI equal to 16.2 µM

compound `COc1ccc(Cn2c(=O)c(OS(=O)(=O)C(F)(F)F)c(C)c3cc4ccccc4cc32)cc1` , TGI observed: > 100 µM

Data point: `CCN(CC)CC[n+]1ccc2c(C)c3[nH]c4ccccc4c3c(C)c2c1` ; TGI = 2.93 µM

Noted for `COc1ccc(/C=C/C(=O)c2cc(CN(C)C)c(O)c(CN(C)C)c2)cc1` : its TGI reads 69.6 µM

Noted for `COC(=O)[C@@H]1C=CCN1S(=O)(=O)c1ccc(C)cc1` : its TGI reads > 100 µM

Measured TGI, `Cc1cc(C)c(-c2c(O)c(Br)c(-c3c(C)cc(C)c(Br)c3C)c(O)c2Br)c(C)c1Br` : 4.42 µM

Quick note, TGI for `CC(C)(C)OC(=O)NCC(c1c[nH]c2ccccc12)c1c[nH]c2ccccc12` landed at 31.9 µM

Record `Cc1ccc(N=Nc2c(O)ccc3ccccc23)c(C)c1` , field TGI: > 100 µM

TGI in this record for `CSC(=S)NCc1cn(C)c2ccccc12` : 44.5 µM

Noted for COC1CCC(OC)C(c2nc3sccn3c2/C=N/N=C(N)N)C1 (configuration not stated) : its TGI reads 32.8 µM

Recorded result, `COc1ccc(N=C(C)C(C)=Nc2ccc(OC)cc2)cc1` , TGI: > 100 µM

# compound `COc1ccc(C(=O)Cn2c(C(=O)c3ccc(Cl)cc3)nc(-c3ccccc3)c2-c2ccccc2)cc1` ; its TGI = > 100 µM

TGI measured on `COc1ccc(NCn2nc(CCCCCCCCc3nn(CNc4ccc(OC)cc4)c(=S)o3)oc2=S)cc1` = > 100 µM

The compound listed as C[C@@H]1C[C@@H]2OC(=O)[C@]3(C)[C@H]2[C@@H](OC3(C)O)[C@]2(C)C(=O)C=C[C@@H]12 (some centres not stated) has a reported TGI of 64.5 µM

The value of TGI measured for the compound `C/C(=N\Nc1nc2cc(F)ccc2s1)c1ccccn1` turned out to be > 45.1 µM

For this compound ( CCC1OC2(C)CC(C#N)(C#N)C1(C#N)C(=N)O2 (configuration not stated) ), measured TGI is > 100 µM

TGI reported for this compound `COc1ccc(-c2nc(-c3cnccn3)n(C/C=C/c3ccccc3)n2)cc1` : > 100 µM

Measured TGI of `COc1ccc(C(=O)c2ccccc2)c(O)c1` : > 100 µM

----------
test system: HCC-2998 colon; experiment: NCI tumour cell line growth inhibition, 48 h
RESULT TYPE: TGI

So, `NCCCNCCSP(=O)(O)O` ? Its TGI was > 750 µM

Entry COC(=O)c1ccc(C)cc1C1CN=NC12Cc1cccc(C)c1C2=O (stereo unspecified) , TGI reported as > 100 µM

Notebook: O=C(CCC(NC(=O)OCc1ccccc1)C(=O)OCc1ccccc1)Nc1cccc(OCc2ccccc2)c1 (stereo unspecified) , TGI read as > 100 µM

Looking up `Cc1cc2ccccc2oc(=O)/c1=N\Nc1ccccc1` , I see its TGI listed as > 100 µM

# TGI of `CSC(=S)NCc1cn(C)c2ccccc12` = 98.7 µM

`CC(C)(O)c1cc(Nc2cc(Oc3cn(C4CC4)nc3C3CCOCC3)ccn2)ccn1` has a reported TGI of > 100 µM

----------
system: KM12 colon; assay: NCI tumour cell line growth inhibition, 48 h
Would you kindly list TGI for each of these compounds?

Summary for this compound, `Cc1cc(C)c(-c2c(O)c(Br)c(-c3c(C)cc(C)c(Br)c3C)c(O)c2Br)c(C)c1Br` : TGI is 13.1 µM

What the record says about CC(C)(C1=NC(C(C)(C)C)CO1)C1=N[C@@H](C(C)(C)C)CO1 (some centres not stated) : TGI is > 100 µM

Sample `CCOC(=O)c1sc(NC(=O)COc2ccc(/C=C3\CCc4cc(OC)ccc4C3=O)cc2)nc1C` ; TGI observed: 21.5 µM

// TGI value for `S=C(Nc1ccc(-c2nc3ccccc3s2)cc1)Nc1ccc(-c2nc3ccccc3s2)cc1` : > 100 µM

The reported value for `Cc1cc2ccccc2n2c1nc1ccc(O)cc12` in terms of TGI is > 10 µM

Briefly, TGI measured for `Cc1cc(C)nc(NC(=O)COc2ccc(Cl)cc2)c1` : > 100 µM

// TGI lookup, compound = COC(=O)C1=C(O)c2cc(OC)c(OC)c(OC)c2C(c2ccc3c(c2)OCO3)[C@@H]1C(=O)OC (some centres not stated) , result: > 100 µM

Looking up `COc1ccc(Cn2c(=O)c(OS(=O)(=O)C(F)(F)F)c(C)c3cc4ccccc4cc32)cc1` , I see its TGI listed as > 100 µM

TGI in this record for `BrCc1ccc2ccc3ccc(CBr)nc3c2n1` : 14.7 µM

Quick note, TGI for COC(=O)CCC(NC(=S)N/N=C(\C)c1cccs1)C(=O)OC (configuration not stated) landed at > 100 µM

Lab book: TGI of `O=S1(=O)CCC2=CC(C(F)(F)F)=CC(C(F)(F)F)=CN21` noted as 3.54 µM

Lab note: O=C(O)C1CC2C=CCC(C2)C1 (configuration not stated) gave TGI of > 100 µM

`O=C(NCc1cn(Cc2cccc(Oc3ccccc3)c2)nn1)c1cccnc1NCc1ccc(Cl)cc1` yielded TGI of > 100 µM

For record `Cc1oc(N)c(S(=O)(=O)/C(C#N)=C/c2ccccc2[N+](=O)[O-])c1C` the listed TGI is 73.2 µM

Per the record, `CCNc1ccc2c(c1)C(=O)N(OS(C)(=O)=O)C2=O` has TGI of > 100 µM

Recorded result, `CC(C)(C)OC(=O)NCC(c1c[nH]c2ccccc12)c1c[nH]c2ccccc12` , TGI: 28.6 µM

Briefly, TGI measured for `Cc1cccc(C=NC23CC4CC(CC(C4)C2)C3)c1` : > 100 µM

Please fill in: TGI reported for `C(=Nc1ccc(-c2nc3ccccc3s2)cc1)c1cccs1` = > 100 µM

Summary for this compound, N#C/C(=C/C=C/c1cccc(Cl)c1)S(=O)c1ccccc1 (configuration not stated) : TGI is 1.38 µM

The compound listed as `Cc1nc(Nc2ccc(Cl)cc2)sc1C(=O)Nc1cccc2c(=O)[nH][nH]c(=O)c12` shows TGI equal to > 100 µM

Record `Cc1cccc(NC(=S)Nc2cccc(Cl)c2)n1` , field TGI: > 100 µM

Per the records, this compound ( CC(C)(C)N=C1C(=O)C2(C)CCC1C2(C)C (configuration not stated) ) has TGI equal to > 100 µM
